Tested on: SW-620 colon
Test: NCI-60 one-dose screen, 48 h (100 = growth as untreated, 0 = no growth, -100 = all killed)
Conditions: 10 µM unless noted
The panel holds about 83,000 compounds, 20% with a hit somewhere; the sample as a whole holds those more often.
valueType: growth (%)
Record the value in %, omitting the unit from your answer.

Known growth results, listed for orientation:
O=C(CSc1nc(-c2ccc(Cl)cc2)cn1-c1ccc(Cl)cc1)c1ccc(Br)cc1	89.3
C=C1C(=O)O[C@H]2[C@H]1CC/C(Cn1cc(-c3ccsc3)nn1)=C\CC[C@@]1(C)O[C@@H]21	-71.3
NC(N)=NC(N)=Nc1ccccc1-c1ccccc1	107
O=C(NNC(=S)Nc1ccccc1)c1ccccn1	42.1

Next up:
## Input If you can, please state the reported growth value of Cc1cc(Nc2nc(-c3ccc(F)cc3)nc3ccccc23)n[nH]1 .
## Output 48.8

* * *

Tested on: LOX IMVI melanoma
Experiment: NCI-60 one-dose screen, 48 h (100 = growth as untreated, 0 = no growth, -100 = all killed)
Conditions: 10 µM unless noted
About 83,000 compounds went through this panel and 20% of them were active in at least one assay; those are over-represented in the sample as a whole.
Let's look at some compounds and their measured growth.
Record the value in %, omitting the unit from your answer.

Known growth results, listed for orientation:
COC(=O)CCCCCCN=Cc1c(O)c(O)c(C(C)C)c2cc(C)c(-c3c(C)cc4c(C(C)C)c(O)c(O)c(C=NCCCCCCC(=O)OC)c4c3O)c(O)c12	21.4
CCCCCCCCCCCCCCCCCCOc1cccc(CCOP(=O)(O)OCC[N+](C)(C)C)c1	77.3
CCOC(=O)CC/C(C)=N\Nc1ccc([N+](=O)[O-])cc1	17.1

## Input If you can, please state the reported growth value of CCCCCCCCCCn1cc[n+](C)c1 .
## Output 23.9

## Input Same question for CC(Br)C(O)c1cc2c(cc1Br)OCO2 (stereo unspecified) please.
## Output 93.2

## Input Same question for O=C(O)c1cn(C2CC2)c2cc(N3CCN(S(=O)(=O)c4ccc(Cl)c(Cl)c4)CC3)c(F)cc2c1=O please.
## Output 1.21

## Input Same question for COc1ccc(C2SCC(=O)N2NC(=O)c2ccc(NC(=O)c3ccccn3)cc2)cc1OC (stereo unspecified) please.
## Output 99.5

## Input Same question for CC1CCc2c(sc(NC(=O)CSc3nnc4ccccn34)c2C(N)=O)C1 (stereo unspecified) please.
## Output 90.5

## Input Same question for COc1cccc(NC(=O)Cn2cc3c(=O)oc4ccccc4c3n2)c1 please.
## Output 113

## Input Same question for O=C(CNc1ccc(Cl)cc1)Nc1ccc(-c2nc3ccccc3s2)cc1 please.
## Output -41

## Input Same question for CCCCCCCCCCC/C=C\C[C@H](O)C/C=C1/C(=O)C=C[C@@H]1C/C=C\CCCC(=O)OC please.
## Output -92.4

## Input Same question for COC12CC(=O)C(C(C)=O)=C(O)C1(C)c1c(O)c(C)c(O)c(C(C)=O)c1O2 (stereo unspecified) please.
## Output 57.5

## Input Same question for Nc1c(C(=O)Nc2cccc(C(F)(F)F)c2)sc2nc3c(cc12)C(O)CCC3 (stereo unspecified) please.
## Output 47.8

## Input Same question for CC1=CNNc2c3ncnc-3ncn21 please.
## Output 106

* * *

Tested on: SN12C renal
Assay: NCI-60 one-dose screen, 48 h (100 = growth as untreated, 0 = no growth, -100 = all killed)
Conditions: 10 µM unless noted
About 83,000 compounds went through this panel and 20% of them were active in at least one assay; those are over-represented in the sample as a whole.
valueType: growth (%)
Record the value in %, omitting the unit from your answer.

CCNc1nc(N2CC(=O)Nc3cc(OC)ccc32)c2ccccc2n1	27
CCN1C(=O)/C(=c2\sc3n(c2=O)C2C(NN=3)N(CC)C(=S)N2CC)c2ccccc21 (stereo unspecified)	99.4
Cc1ccc(Nc2ncnc3c2sc2ncccc23)cc1	98.4
CCCn1c(=S)sc2c(Cl)nc(C)nc21	113
CC1=CNNc2c3ncnc-3ncn21	105

## Input Checklist item: growth tested on SN12C renal, entry COc1cccc(-c2nc3sccn3c2-c2ccnc(NCCCNS(=O)(=O)c3ccccc3)n2)c1 , value?
## Output 55

* * *

Tested on: A498 renal
Experiment: NCI-60 one-dose screen, 48 h (100 = growth as untreated, 0 = no growth, -100 = all killed)
Conditions: 10 µM unless noted
About 83,000 compounds went through this panel and 20% of them were active in at least one assay; those are over-represented in the sample as a whole.
Classification field: enter T for growth values not below 60%, F for values below it.

Reference set (3 entries):
Nc1c(C(=O)c2ccc(F)cc2)sc2nc3c(cc12)CCCC3	F
CC(C)C[C@H](NC(=O)[C@@H](Cc1ccccc1)n1ccc(Nc2ccccc2)cc1=O)B(O)O	F
COc1cc2c3c(c(=O)oc2cc1OS(=O)(=O)c1ccc(C(F)(F)F)cc1)CCCCC3	T

## Input Threshold query (growth >= 60%) on CC/C=C\C[C@H](O)C/C=C1/C(=O)C(Cl)=C[C@@H]1C/C=C\CCCC(=O)O
## Output T

## Input Same question for N=C(N)c1ccc(-c2ccc(-c3ccc(Cl)cc3)o2)nc1 please.
## Output F

* * *

Tested on: SNB-75 CNS
Experiment: NCI-60 one-dose screen, 48 h
Details: 10 µM unless noted
The panel holds about 83,000 compounds, 20% with a hit somewhere; the sample as a whole holds those more often. The source made the active and inactive calls. Rule for the calls: active = growth percent below 10; inactive = the rest.
Permitted responses: active, inactive

## Input Entry COc1cc2nc(SCc3cc(OC)c(OC)c(OC)c3)n(Cc3ccccc3)c(=O)c2cc1OC : call = ?
## Output active

## Input Same question for CC1CCN(C(=O)CSc2nc3sc4c(c3c(=O)[nH]2)CCCC4)CC1 please.
## Output inactive

## Input Same question for CCOC(=O)/C=C\C(=O)NC(N)=O please.
## Output inactive

## Input Same question for CC(C(=O)n1cc(-c2ccccc2)c(-c2ccccc2)c1)c1ccccc1 (stereo unspecified) please.
## Output inactive

## Input Same question for NC(=O)c1c(NC(=O)c2ccc3c(c2)OCO3)sc2c1CCC(=O)C2 please.
## Output active

## Input Same question for Nc1c(C(=O)Nc2cccc(Cl)c2Cl)sc2nc3c(cc12)C(=O)CCC3 please.
## Output inactive

* * *

Let's look at some compounds and their measured growth.
Tested on: HS 578T breast
Experiment: NCI-60 one-dose screen, 48 h (100 = growth as untreated, 0 = no growth, -100 = all killed)
Settings: 10 µM unless noted
About 83,000 compounds went through this panel and 20% of them were active in at least one assay; those are over-represented in the sample as a whole. Calls of active or inactive are those of the source. Rule for the calls: active = growth percent below 10; inactive = the rest.

Known growth results, listed for orientation:
O=C(Nc1ccc(F)cc1)c1cc([N+](=O)[O-])ccc1O	64% (inactive)
COc1cc(C2C=C(C)N=C3SC(C)=NN32)cc(OC)c1OC (centres undefined)	114% (inactive)
COC(=O)CC/C(C)=N\Nc1ccc([N+](=O)[O-])cc1	81.7% (inactive)

## Input If you can, please state the reported growth value of COc1cc(-c2cc(/C=C3\CCCCC3=O)[nH]n2)cc(OC)c1OC .
## Output 99.4% (inactive)

## Input Same question for CC(C)(C)OC(=O)N1C/C(=C\c2cccs2)C(=O)/C(=C/c2cccs2)C1 please.
## Output 93.3% (inactive)

* * *

Let's look at some molecules and their measured growth.
Tested on: OVCAR-5 ovarian
Assay: NCI-60 one-dose screen, 48 h (100 = growth as untreated, 0 = no growth, -100 = all killed)
Details: 10 µM unless noted
The panel holds about 83,000 compounds, 20% with a hit somewhere; the sample as a whole holds those more often.
Record the value in %, omitting the unit from your answer.

## Input If you can, please state the reported growth value of COc1ccc(S(=O)(=O)Nc2cc(/C=C\c3cc(OC)c(OC)c(OC)c3)cc(OC)c2OC)cc1OC .
## Output 30.8

## Input Same question for COc1cc(NS(C)(=O)=O)ccc1Nc1c2ccc([N+](=O)[O-])cc2nc2c(C)cccc12 please.
## Output 36.8

## Input Same question for NCCSC(c1ccccc1)(c1ccccc1)c1ccccc1 please.
## Output 13.1

## Input Same question for COc1ccc(/C=C2\CCCC3=C2NC(C)=NC3c2ccc(OC)c(OC)c2)cc1OC (stereo not given) please.
## Output 4.73

## Input Same question for O=C1OC(c2ccccc2)=N/C1=C\c1ccc([N+](=O)[O-])cc1 please.
## Output 92.8

## Input Same question for COc1ccc(OC)c(NC(=O)c2cc(S(=O)(=O)N3CCc4ccccc43)ccc2OC)c1 please.
## Output 89.8

## Input Same question for CSc1ccccc1C#C/C=C\C#Cc1ccccc1N1CCCCC1=O please.
## Output 96.7
